# Solubility in Water annotations
assay: Solubility in water of dye quenchers

STRUCTURE NOTATION	CENSORING SIGN	Solubility in Water / mg/mL
CCN(CC)c1ccc(C(=C2C=CC(=[N+](CC)Cc3cccc(S(=O)(=O)[O-])c3)C=C2)c2ccc(N(CC)Cc3cccc(S(=O)(=O)[O-])c3)cc2)cc1.[Na+]	=	30
CC(=O)Nc1ccc(S(=O)(=O)[O-])c2cc(S(=O)(=O)[O-])c(N=Nc3ccc(N=Nc4ccc(S(=O)(=O)[O-])cc4)c4ccc(S(=O)(=O)[O-])cc34)c(O)c12.[Na+].[Na+].[Na+].[Na+]	=	30
O=S1(=O)OC(c2cc(Cl)c(O)c(Br)c2)(c2cc(Cl)c(O)c(Br)c2)c2ccccc21	=	20
O=S1(=O)OC(c2ccc(O)c(Cl)c2)(c2ccc(O)c(Cl)c2)c2ccccc21	=	30
Nc1c(N=Nc2ccc([N+](=O)[O-])cc2)c(S(=O)(=O)[O-])cc2cc(S(=O)(=O)[O-])cc(O)c12.[Na+].[Na+]	=	40
Cc1cc(-c2ccc(/N=N/c3c(S(=O)(=O)O)cc4cc(S(=O)(=O)O)cc(N)c4c3O)c(C)c2)ccc1/N=N/c1c(S(=O)(=O)O)cc2cc(S(=O)(=O)O)cc(N)c2c1O	>	20

* * *

assay: Solubility in water of dye quenchers; conditions: water, Solubility in Water

COMPOUND	UOM	solubility
O=c1c(Br)cc2c(-c3ccccc3S(=O)(=O)O)c3cc(Br)c(O)c(O)c3oc-2c1O [Bromopyrogallol Red]	µg/mL	5000

* * *

Target: DP (Homo sapiens, UniProt Q13258)
Construct: expressed in transfected cells; host or cells: cell line ASC0093 (CNG sensor line)
Sequence (Q13258 1-359): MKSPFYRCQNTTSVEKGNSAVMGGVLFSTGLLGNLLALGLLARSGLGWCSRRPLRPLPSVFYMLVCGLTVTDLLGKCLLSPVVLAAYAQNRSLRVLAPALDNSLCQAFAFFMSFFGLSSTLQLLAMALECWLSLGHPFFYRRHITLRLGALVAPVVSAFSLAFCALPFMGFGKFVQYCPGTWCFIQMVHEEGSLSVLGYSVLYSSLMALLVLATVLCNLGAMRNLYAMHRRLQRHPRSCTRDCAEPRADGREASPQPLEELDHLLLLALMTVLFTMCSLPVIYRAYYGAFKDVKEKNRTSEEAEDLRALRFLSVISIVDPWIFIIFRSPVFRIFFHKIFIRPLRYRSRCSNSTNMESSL
Assay: CNG channel voltage dye assay with quencher dyes, cell line ASC0093 (DP)
Assay type: cell-based
Settings: NY & H30602
pEC50: −log10 of the molar value.
PARAMETER: pEC50

> print(dat)
                                   compound              target.or.test.system  parameter  test.value
1  CCCCC[C@H](O)/C=C/[C@H]1C(=O)C[C@H](O)[C@@H]1C/C=C\CCCC(=O)O [PGD2, Prostaglandin D2]  DP (Homo sapiens, UniProt Q13258)      pEC50       11.11

* * *

target: DP (Homo sapiens); construct: expressed in transfected cells; host or cells: cell line ASC0093 (CNG sensor line); experiment: CNG channel voltage dye assay with quencher dyes, cell line ASC0093 (DP); type: cell-based; settings: MDC dye
pEC50: −log10 of the molar value.
PARAMETER: pEC50

> print(dat)
                                   compound  parameter  test.value
1  CCCCC[C@H](O)/C=C/[C@H]1C(=O)C[C@H](O)[C@@H]1C/C=C\CCCC(=O)O [PGD2, Prostaglandin D2]      pEC50       10.74

* * *

# Solubility in Water annotations
test: Solubility in water of dye quenchers
PARAMETER: Solubility in Water (mg/mL)

> print(dat)
                                   molecule    uom  test.value
1  CC1=CC(=C(c2ccc(N)c(C)c2)c2ccc(N)c(C)c2)C=CC1=N.Cl  mg/mL          20
2  O=S(=O)([O-])c1cccc(N=Nc2ccc(N=Nc3ccc(Nc4ccccc4)c4c(S(=O)(=O)[O-])cccc34)c3ccccc23)c1.[Na+].[Na+]  mg/mL          40
3  O=S1(=O)OC(c2cc(Br)c(O)c(Br)c2)(c2cc(Br)c(O)c(Br)c2)c2ccccc21  mg/mL          30
4  O=S(=O)([O-])c1cc(O)c2c(/N=N/c3ccc(Nc4ccccc4)c4c(S(=O)(=O)[O-])cccc34)cc(S(=O)(=O)[O-])cc2c1.[Na+].[Na+].[Na+]  mg/mL          40
5  O=S(=O)([O-])c1cc(O)c(N=Nc2c(O)ccc3ccccc23)c2ccccc12.[Na+]  mg/mL          30
6  CCN(CC)c1ccc2nc3ccc(N)cc3[n+](-c3ccccc3)c2c1.[Cl-]  mg/mL          10
7  O.O=C1c2ccccc2C(=O)c2c1cc(S(=O)(=O)[O-])c(O)c2O.[Na+] [Alizarin Red S monohydrate]  mg/mL          20

All figures here come from patent US7238213B2.
